Reported Percent Effect values follow for various compounds
tested on: Plasmodium falciparum; test: Calibr Malaria Delayed Death Assay SOP; type: functional, organism-based; set-up: scale not given: in the data most compounds retested in dose-response had high values; details: concentration 4.99e-06 (unit not given; other assays of the set use mol/L)
About 1,200 (3.2%) of roughly 38,000 compounds showed an effect of 50% or more. The median lay at about -58%. The sample holds strong results, similar compounds and a random draw of the others, so the mix is not that of the screen.

{"Compound": "COc1ccc(C(=O)N(CCO)Cc2ccccc2)c(OC)n1", "Measured Target": "Plasmodium falciparum", "Percent Effect / %": -39.82}
{"Compound": "O=C(O)C(F)(F)F.O=C(c1ccccc1F)N1CCC2(CC1)CC(N1CCCC1)CO2 (configuration not stated)", "Measured Target": "Plasmodium falciparum", "Percent Effect / %": -57.39}
{"Compound": "CN(C)CCOCc1cncc2c1CCN(C(=O)C1CCOCC1)C2.O=C(O)C(F)(F)F.O=C(O)C(F)(F)F", "Measured Target": "Plasmodium falciparum", "Percent Effect / %": -70.85}
{"Compound": "O=C(CC1NC(N2CCc3ccccc32)=NC1=O)Nc1ccc(Cl)cc1 (configuration not stated)", "Measured Target": "Plasmodium falciparum", "Percent Effect / %": -176.9}
{"Compound": "COCC(=O)N1CCC2(CCN(c3cnn(C)c3)C2=O)C1 (configuration not stated)", "Measured Target": "Plasmodium falciparum", "Percent Effect / %": -59.68}
{"Compound": "CS(=O)(=O)NC1CCN(CCc2ccccc2)CC1", "Measured Target": "Plasmodium falciparum", "Percent Effect / %": -29.4}
{"Compound": "O=C(COc1cccc2c1CCC2=O)NCc1ccccc1Cl", "Measured Target": "Plasmodium falciparum", "Percent Effect / %": -71.52}
{"Compound": "COc1cccc(C(=O)N2CCCC(CNS(C)(=O)=O)C2)c1 (configuration not stated)", "Measured Target": "Plasmodium falciparum", "Percent Effect / %": -46.69}
{"Compound": "Cc1ncsc1C(=O)NC1CCN(CC(N)=O)CC1", "Measured Target": "Plasmodium falciparum", "Percent Effect / %": -67.12}
{"Compound": "CCOC(=O)N[C@H]1C[C@@H](C(=O)NCCc2cccc(Cl)c2)N(C)C1", "Measured Target": "Plasmodium falciparum", "Percent Effect / %": -112.6}
{"Compound": "Cc1ccccc1CNc1ccccc1OCC(=O)N1CCOCC1", "Measured Target": "Plasmodium falciparum", "Percent Effect / %": 13.74}
{"Compound": "CCC(NCc1ccccc1Cl)c1ccccc1OCC(=O)NC (configuration not stated)", "Measured Target": "Plasmodium falciparum", "Percent Effect / %": 73.2}
{"Compound": "Cn1[nH]c(Br)c2/c(=N\\CCN)ncnc1-2", "Measured Target": "Plasmodium falciparum", "Percent Effect / %": -80.01}
{"Compound": "CNC(=O)C1CCN(Cc2nc(-c3ccc(SC)cc3)oc2C)C1 (configuration not stated)", "Measured Target": "Plasmodium falciparum", "Percent Effect / %": -104}
{"Compound": "COc1cc(-c2cc(NC3CCCC3)nc3[nH]ccc23)nc(N)n1", "Measured Target": "Plasmodium falciparum", "Percent Effect / %": 62.87}
{"Compound": "CNC(=O)CCN(C)CC1(c2ccc(Br)cc2)CC1", "Measured Target": "Plasmodium falciparum", "Percent Effect / %": 86.7}
{"Compound": "FC(F)(F)c1ccc(-c2cc(NC3CCNCC3)nc3[nH]ccc23)nc1", "Measured Target": "Plasmodium falciparum", "Percent Effect / %": -115.3}
{"Compound": "CCOc1ccc(Br)cc1S(=O)(=O)N(CC)Cc1ccc(N(C)C)cc1", "Measured Target": "Plasmodium falciparum", "Percent Effect / %": -41.17}
{"Compound": "Cc1cccc(NC(=O)C2(n3cnnn3)CCCCC2)n1", "Measured Target": "Plasmodium falciparum", "Percent Effect / %": -65.2}
{"Compound": "CCn1ccc(-c2nnc(SCC(=O)NCC(C)C)n2CC)n1", "Measured Target": "Plasmodium falciparum", "Percent Effect / %": -143.1}
{"Compound": "O=C(O)C(F)(F)F.c1cnc(N2CCC3(CN(CC4CCOC4)C3)C2)nc1 (configuration not stated)", "Measured Target": "Plasmodium falciparum", "Percent Effect / %": -18.8}
{"Compound": "Cc1nc2n(n1)CC(NCc1c(Cl)ccc3cccnc13)CC2 (configuration not stated)", "Measured Target": "Plasmodium falciparum", "Percent Effect / %": -131.5}
{"Compound": "COc1ccc(CCNC(=O)NC2CCCC2)cc1OC", "Measured Target": "Plasmodium falciparum", "Percent Effect / %": -80.35}
{"Compound": "CCCN1C(=O)CC(N2CCN(c3ccc(F)cc3)CC2)C1=O (configuration not stated)", "Measured Target": "Plasmodium falciparum", "Percent Effect / %": -22.99}
{"Compound": "CC(NCc1ccc(OCC(N)=O)cc1)c1ccc(Cl)c(Cl)c1.Cl (configuration not stated)", "Measured Target": "Plasmodium falciparum", "Percent Effect / %": 2.26}
{"Compound": "OCC1CCCN(Cc2c(C3CCCC3)[nH]c3ncccc23)C1 (configuration not stated)", "Measured Target": "Plasmodium falciparum", "Percent Effect / %": 11.34}
{"Compound": "COc1nccnc1-c1cc(NC2CCCC2)nc2[nH]ccc12", "Measured Target": "Plasmodium falciparum", "Percent Effect / %": 19.53}
{"Compound": "N#Cc1cccnc1OC1CCN(S(=O)(=O)c2ccc(F)c(Cl)c2)CC1", "Measured Target": "Plasmodium falciparum", "Percent Effect / %": -120.1}
{"Compound": "CC(C)(C)C1CC(=O)Nc2c1cnn2Cc1ccco1 (configuration not stated)", "Measured Target": "Plasmodium falciparum", "Percent Effect / %": -56.11}
{"Compound": "Fc1ccc(CN2CCCC3(COCCN(Cc4c[nH]nn4)C3)C2)cc1.O=C(O)C(F)(F)F.O=C(O)C(F)(F)F (configuration not stated)", "Measured Target": "Plasmodium falciparum", "Percent Effect / %": 61.69}
{"Compound": "COc1ccc(Br)cc1CC(=O)N1CCCC1", "Measured Target": "Plasmodium falciparum", "Percent Effect / %": -142.1}
{"Compound": "COC(=O)c1cccc(C(=O)N(C)Cc2cccc(F)c2)c1", "Measured Target": "Plasmodium falciparum", "Percent Effect / %": -135.6}

All values here come from ChEMBL document CHEMBL3988442.
